Below: a set of entries, each annotated with reported melting point.

Would you please look over these solved cases?
CN(C(=O)COc1nc(C(Cl)(Cl)Cl)ns1)C1=CCCCC1
78 °C
COc1ccc(C(=O)Nc2ccc3ccc(Nc4ccccc4)nc3n2)cc1
245 °C
COc1ccc(CCN2CCC(C(O)(c3ccccc3)c3nc4ccccc4s3)CC2)cc1 (stereo not given)
67 to 70 °C

For record O=C1c2ccccc2C(=O)N1CC(=O)N1c2ccccc2N(CCCc2ccccc2)C(=O)[C@H]2CCC[C@H]21 (relative stereo) the listed melting point is 192 to 193 °C

For record CCOC(=O)C(C)(C#N)c1ccc2c(c1)Cc1cccnc1O2 (stereo not given) the listed melting point is 119 to 120 °C

For record CC(C)NCC(O)COc1ccccc1-c1ccc(=O)[nH]n1 (stereo not given) the listed melting point is 150 to 152 °C

For record CN1CC(C(=O)c2c[nH]cc2Cc2ccc(F)cc2)=C(O)C1=O the listed melting point is 265 to 267 °C

----------
Below: a set of entries, each annotated with reported melting point.
Give the value in °C but do not write °C after it.

CC(C)NCC(O)COc1ccc2c(=O)cc(-c3ccc(O)c(O)c3)oc2c1 (centres undefined)
187
NNC(=O)c1cc(Cl)c(O)cc1O
260
CCCC(CC(=O)Nc1cc(C(N)=O)ccc1C(C)(C)C)c1ccc(OC)cc1OC (centres undefined)
192

// next entry
For record O=C(Oc1ccccc1)N1Cc2ccccc2C(Oc2ccc(C(F)(F)F)cc2)C1 (centres undefined) the listed melting point is 72

----------
Measured Parameter: melting point

NC1=NC(c2cccc(-c3cccnc3F)c2)(c2ccc3c(c2)OCCO3)C2=NCCCN12 (stereo not given)
125 to 140 °C
CCOC(=O)c1cn(-c2nc(NCc3ccc(OC)cc3)c(F)cc2F)c2c(F)c(F)c(F)c(F)c2c1=O
203 to 208 °C
CCN1C[C@@H](O)[C@H](Oc2ccc(C(C)=O)cc2OC)C1 (relative stereo)
121 to 123 °C
C#CCN(Cc1cc2c(=O)n(C)c(COS(C)(=O)=O)nc2cc1Cl)c1ccc(C(=O)OC(C)(C)C)cc1
204 to 205 °C

For record NC(=O)[C@@H]1CCCN1C(=O)/C=C/Sc1ccccc1 the listed melting point is 50 to 54 °C

For record COc1cc2nc(N3CCN(c4ccnc(Oc5ccccc5)n4)CC3)nc(N)c2cc1OC the listed melting point is 253 to 254 °C

For record CCOc1cc2c(cc1OCC)C(c1cccc(N)c1)=NN=C(C)C2 the listed melting point is 133 to 134 °C

For record CCCCCCc1ccc(C=Nc2ccc(C#N)cc2)cc1 the listed melting point is 32.2 to 33 °C

For record CNC(=O)C(Cc1ccc(OCCc2nc(-c3ccccc3)oc2C)cc1)C(=O)OC (stereo not given) the listed melting point is 151 to 152 °C

For record COc1ccc(-c2csc(NN=Cc3cn(Cc4ccc(Cl)cc4Cl)c4ccccc34)n2)cc1OC the listed melting point is 205 °C

For record O=c1c2c(-c3ccc(O)cc3)n[nH]c2c2cccnc2n1-c1ccccc1 the listed melting point is > 300 °C

For record COC(=O)CCCCC(=O)c1cccc(F)c1O the listed melting point is 59 to 60 °C

For record CCOC(=O)c1cnc2nn(C)cc2c1NCCCN(C)C the listed melting point is 61 to 63 °C

For record CS(=O)(=O)Nc1ccc(NCC(=O)N2CCC(Cc3ccc(Cl)cc3)CC2)cc1 the listed melting point is 70 °C

For record CN(CC1OCCO1)c1nccc(Oc2ccc(NC(=O)c3cc(F)cc(N4CCCCC4)c3)c3ccccc23)n1 the listed melting point is 125 to 127 °C

For record COC(=O)c1cc(N)c(F)c(-c2ccc(Cl)cc2)n1 the listed melting point is 177 to 179 °C

For record O=C(NC12CC3CC(CC(C3)C1)C2)c1cc(O)c(O)c(Cl)c1 the listed melting point is 244 to 247 °C

For record COc1ccc(N)cc1CNC(C)=O the listed melting point is 123 to 125 °C

For record COC(Cc1ccc(OCCc2nc(-c3ccccc3)oc2C)c2ccccc12)C(=O)O (stereo not given) the listed melting point is 128 to 130 °C

For record O=C(O)CC1(CC(O)=NO)CCCC1 the listed melting point is 70 to 74 °C

----------
Below: a set of entries, each annotated with reported melting point.

Would you please look over these solved cases?
CCCC1=C(c2ccccc2)[C@@H](c2ccccc2)OC1=O
104 to 105 °C
O=C(Nc1ccc(CN2CCC(=O)C(=C3SC=CS3)C2=O)cc1)OCc1ccccc1
175 to 176 °C
CCN(c1ccc(C#N)cc1)S(=O)(=O)c1ccc(C)cc1
85.4 to 86.6 °C
C=C(C)n1c(=O)n(CCN2CCC(Cc3c[nH]c4ccc(F)cc34)CC2)c2ccccc21
132 °C
COC(=O)c1c(O)cc(OCC(=O)c2ccc3c(c2)C(C)(C)CCC3(C)C)cc1O
162 to 163 °C

For record O=[N+]([O-])c1cc(Cl)cc2cccnc12 the listed melting point is 149 to 155 °C

For record CC(CCCO)C1CCC2C3C(O)CC4CC(O)CCC4(C)C3CCC12C (stereo unspecified) the listed melting point is 116 to 118 °C

For record O=C(Nc1cccc2c1ncc1c(=O)[nH]cnc12)c1c(Cl)cccc1Cl the listed melting point is > 250 °C

For record C=Cc1cnc([N+](=O)[O-])n1CC the listed melting point is 45 to 47 °C

For record O=C(Cc1ccccc1)CC1c2ccccc2C(=O)N1c1ccc2ccc(Cl)nc2n1 (stereo unspecified) the listed melting point is 182 °C

For record CC(C)(C)C(NC(=O)c1ccccc1)NC(=S)Nc1cccnc1 (stereo unspecified) the listed melting point is 193 to 194 °C

For record O=C(OC1CCCCC1)c1cncn1C(c1ccccc1)c1ccccn1 (stereo unspecified) the listed melting point is 161 °C

For record CCOC(=O)c1c(C)[nH]c(C)c1CC the listed melting point is 105 to 107 °C

For record O=C(O)CC1CSc2sccc2C1=O (stereo unspecified) the listed melting point is 124 to 127 °C

For record COc1cn(C(C)(C)C(=O)N(C)C)nc1-c1ccccc1 the listed melting point is 114 to 116 °C

For record O=c1c2cc(F)ccc2nc(CNCc2ccccc2F)n1-c1ccccc1Cl the listed melting point is 140 °C

----------
Below: a set of entries, each annotated with reported melting point.

For record CC(C)(C)OC(=O)[C@@H]1CS[C@H](c2cccnc2)N1C(=O)CNC(=O)Nc1cccc(C(=O)O)c1 the listed melting point is 147 °C

For record O=c1[nH]cc(-c2ccncn2)cc1Br the listed melting point is > 250 °C

For record CCC1(C)OC(c2ccc(S(N)(=O)=O)cc2)=C(c2ccc(C(C)=O)cc2)C1=O (centres undefined) the listed melting point is 154 to 155 °C

For record O=S(=O)(c1ccccc1)N1CCC(=C(c2ccc(F)cc2)c2ccc(F)cc2)CC1 the listed melting point is 90 to 92.5 °C

For record CCCCCCN(Cc1cccnc1)C(Nc1ccc(OC)cc1OC)=C1C(=O)OC(C)(C)OC1=O the listed melting point is 154 to 155 °C

For record CC(C)S(=O)(=O)Nc1cccc(C=C2c3ccccc3CCc3ccccc32)c1 the listed melting point is 188 °C

For record COc1ccc(-n2cnc3ccc(-c4nnc(SCc5cccc(F)c5)o4)cc32)cc1 the listed melting point is 155 to 156 °C

For record COc1cc(C)cc(OC)c1NC(=O)CC(C)C the listed melting point is 139 °C

For record Cn1c(=O)c2c(ncn2CC(O)CN2CCN(CCCS(=O)(=O)c3ccccc3)CC2)n(C)c1=O (centres undefined) the listed melting point is 168 °C

----------
Measured Parameter: melting point

COc1ccc2cccc(C(C#N)O[Si](C)(C)C)c2c1 (stereo unspecified)
123 to 125 °C

For record O=C(NC(=Cc1ccccc1)c1ccccc1)C(F)(F)F the listed melting point is 148 to 150 °C

For record O=C(NCCCSc1ccncc1)c1ccco1 the listed melting point is 98 to 99 °C

For record Cc1cc(C#N)c(C)c(C(=O)Nc2ccc(F)c(C)n2)n1 the listed melting point is 201 °C

For record COc1ccc(-c2coc3ccc(-c4nnc(SCc5cccc(C#N)c5)o4)cc23)cc1 the listed melting point is 145 to 146 °C

For record COC(=O)Cc1c(C)nc(SC)nc1O the listed melting point is 200 °C

----------
Measured Parameter: melting point

Would you please look over these solved cases?
CC(=O)SCC(CC1CN(Cc2ccccc2)CCO1)C(=O)Nc1cccc(C(=O)O)c1 (stereo not given)
103 to 105 °C
CC(=O)n1c(SC(F)(F)F)cc(-c2ccc(F)cc2)c1-c1ccc(F)cc1
75 to 76 °C
COc1ccc2c(c1)C(=O)C(=Cc1ccccc1)O2
134 °C

For record CCCOc1cc(Br)ccc1-c1nc2cc3ncn(Cc4ccc(F)cc4)c3cc2c(=O)[nH]1 the listed melting point is 295 to 297 °C

For record CCc1cccc(C)c1NC(=O)N=C1NCCN1 the listed melting point is 185 to 187 °C
